assay_notes: in vitro
condition_parameters: human, Caco-2
Description: Permeability in human Caco-2 cells
endpoint: Papp (×10⁻⁶ cm/s)
Give bare numbers, in ×10⁻⁶ cm/s.

{"compound": "COc1ccc(COc2ccc(Cn3cnc4cc(-n5cc(C(C)(C)N)nn5)cnc43)cc2OC)cn1", "Papp, ×10⁻⁶ cm/s": 2}
{"compound": "COc1ccc(COc2ccc(Cc3cnc(N)nc3N)cc2OC)cc1 [GW632580X]", "Papp, ×10⁻⁶ cm/s": 11}

For every item in the list below, what is its measured Papp?
1. COc1ccc(COc2ccc(Cn3cnc4cc(N5CCN(C)CC5)cnc43)cc2OC)cn1
2. COc1ccc(COc2ccc(Cn3cnc4cc(C#CC5CCNC5)cnc43)cc2OC)cn1 (centres undefined)

Data returned:
[29, 5.1]

====

assay_notes: physchem
condition_parameters: buffer, pH 7.4
Description: Solubility of compound at pH 7.4
endpoint: solubility (mg/mL)
One number for each entry, in mg/mL.

{"molecule": "COc1ccc(COc2ccc(Cn3cnc4cc(C#CC5CCNC5)cnc43)cc2OC)cn1 (centres undefined)", "solubility / mg/mL": 0.057}
{"molecule": "COc1ccc(COc2ccc(Cn3cnc4cc(-n5cc(C(C)(C)N)nn5)cnc43)cc2OC)cn1", "solubility / mg/mL": 0.013}

Let us move to another entry and its solubility.
Data request: Check the records and state solubility for COc1ccc(COc2ccc(Cc3cnc(N)nc3N)cc2OC)cc1 [GW632580X]
Data returned: 0.0012

====

assay_notes: physchem
condition_parameters: octanol/water
Description: Lipophilicity, logD of the compound
endpoint: logD
One number for each entry.

Reference set (3 entries):
{"compound": "COc1ccc(COc2ccc(Cc3cnc(N)nc3N)cc2OC)cc1 [GW632580X]", "logD": 2.6}
{"compound": "COc1ccc(COc2ccc(Cn3cnc4cc(-n5cc(C(C)(C)N)nn5)cnc43)cc2OC)cn1", "logD": 1.6}
{"compound": "COc1ccc(COc2ccc(Cn3cnc4cc(N5CCN(C)CC5)cnc43)cc2OC)cn1", "logD": 2.3}

Now for another entry.
Data request: Please look at this compound and report its logD: COc1ccc(COc2ccc(Cn3cnc4cc(C#CC5CCNC5)cnc43)cc2OC)cn1 (centres undefined)
Data returned: 1.5

====

assay_notes: in vivo
condition_parameters: Sprague-Dawley, rat, iv, 1 mg/kg
Description: Half-life in Sprague-Dawley rat at 1 mg/kg, iv
endpoint: half-life (h)
Give bare numbers, in h.

Data request: Retrieve half-life measured for COc1ccc(COc2ccc(Cn3cnc4cc(C#CC5CCNC5)cnc43)cc2OC)cn1 (stereo unspecified) and print it.
Data returned: 2

====

assay_notes: in vivo
condition_parameters: Sprague-Dawley, rat, po, 3 mg/kg
Description: Half-life in Sprague-Dawley rat at 3 mg/kg, po
endpoint: half-life

Data request: Note down half-life recorded for COc1ccc(COc2ccc(Cn3cnc4cc(C#CC5CCNC5)cnc43)cc2OC)cn1 (stereo unspecified)
Data returned: 1.7 h

====

assay_notes: in vivo
condition_parameters: Sprague-Dawley, rat, po, 3 mg/kg
endpoint: AUC(0-inf) (ng·h/mL)
Give bare numbers, in ng·h/mL.

Data request: Recall and state the measured AUC(0-inf) for COc1ccc(COc2ccc(Cn3cnc4cc(C#CC5CCNC5)cnc43)cc2OC)cn1 (stereo unspecified) .
Data returned: 625

====

assay_notes: in vitro
condition_parameters: human, liver microsomes
Description: Intrinsic clearance in human liver microsomes
Could you please report measured microsomal CLint for the items listed next?
Give bare numbers, in µL/min/mg.

Please review the entries below; each comes with its answer.
{"molecule": "COc1ccc(COc2ccc(Cn3cnc4cc(N5CCN(C)CC5)cnc43)cc2OC)cn1", "unit_annotation": "µL/min/mg", "microsomal CLint": 33}
{"molecule": "COc1ccc(COc2ccc(Cn3cnc4cc(-n5cc(C(C)(C)N)nn5)cnc43)cc2OC)cn1", "unit_annotation": "µL/min/mg", "microsomal CLint": 21}

Data request: Please indicate microsomal CLint recorded for COc1ccc(COc2ccc(Cn3cnc4cc(C#CC5CCNC5)cnc43)cc2OC)cn1 (stereo not drawn)
Data returned: 16
